- Assay Procedure: p53 small molecule agonists, cell-based qHTS assay with human liver microsomes: qHTS cell viability counter screen (AID 1963579); further: nearly all actives have a fitted effect of over 45% in size
- Condition Context: p53RE-bla HCT-116 viability, ATP luminescence, 16 h, HLM; series mostly up to 66 µM
Inconclusive results are not listed. Active and inactive are the calls of the source. The call rests on the fitted dose curve.
Outcome field: choose from YES = active, NO = inactive

Some solved entries appear below for comparison.
Compound | Qualitative Label
Cc1ccc(C(=O)O)cc1[N+](=O)[O-] | NO
COc1cc(Cl)c(OC)cc1N | NO

## Input Answer briefly: the call reported for CC[N+](C)(CC)CCOC(=O)C1c2ccccc2Oc2ccccc21 in this assay.
## Output NO

Data credit: PubChem BioAssay (Tox21)
